# system-name: B1 receptors (Oryctolagus cuniculus, UniProt P48748)
# Construct: The thorax was opened and the thoracic aorta carefully removed; from tissue; host or cells: rabbit thoracic aorta spiral strips
# Sequence (P48748 whole entry): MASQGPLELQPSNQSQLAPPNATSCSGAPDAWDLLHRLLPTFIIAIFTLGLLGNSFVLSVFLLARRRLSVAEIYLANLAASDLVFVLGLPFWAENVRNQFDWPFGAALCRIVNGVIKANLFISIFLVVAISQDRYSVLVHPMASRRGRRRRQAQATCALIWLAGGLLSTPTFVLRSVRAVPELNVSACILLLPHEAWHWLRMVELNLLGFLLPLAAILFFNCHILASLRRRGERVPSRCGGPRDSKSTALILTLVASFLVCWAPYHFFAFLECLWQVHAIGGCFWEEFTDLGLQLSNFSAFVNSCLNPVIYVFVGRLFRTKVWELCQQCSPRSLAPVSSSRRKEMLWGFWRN
# test: B1 receptor bioassay, rabbit aorta strips contracted with des-Arg9-BK
# Assay type: cell-based
# condition-description: 50% reduction of sustained contraction to 10^-7 M des-Arg9-BK; read-out: Rabbit Aorta p IC50 B1 receptors (converted)
measured-parameter: IC50 (µM)
Entry rule: numbers only, all in µM.

Give reported IC50 for COc1cc(C=CC(=O)N[C@H](CCCNC(=N)N)C(=O)N[C@@H](CCCNC(=N)N)C(=O)N2CCC[C@H]2C(=O)N2C[C@H](O)C[C@H]2C(=O)NCC(=O)N[C@@H](Cc2cccs2)C(=O)N[C@@H](CO)C(=O)N[C@@H](C(=O)N2[C@H](C(=O)N[C@@H](CCCNC(=N)N)C(=O)O)C[C@@H]3CCCC[C@@H]32)C2Cc3ccccc3C2)cc(OC)c1O [Compound 60] (B1 receptors (Oryctolagus cuniculus, UniProt P48748))
2.09

Then this compound:
Give reported IC50 for N=C(N)NCCC[C@H](NC(=O)[C@@H]1C[C@@H]2CCCC[C@@H]2N1C(=O)[C@H](NC(=O)[C@H](COS(=O)(=O)O)NC(=O)[C@H](Cc1cccs1)NC(=O)CNC(=O)[C@@H]1C[C@@H](O)CN1C(=O)[C@@H]1CCCN1C(=O)[C@H](CCCNC(=N)N)NC(=O)[C@@H](CCCNC(=N)N)NC(=O)C12CC3CC(CC(C3)C1)C2)C1Cc2ccccc2C1)C(=O)O [Compound 61] (B1 receptors (Oryctolagus cuniculus, UniProt P48748))
4.17
